Please provide measured median fluorescence intensity, fold over isotype control for the entries that follow.
# SYSTEM NAME: SARS-CoV-2 full length spike protein, D614G mutant, expressed on CHO cells (SARS-CoV-2, UniProt P0DTC2 14-1273)
Could you give me the number in fold over isotype? Just the number is fine.

Ask: Field request: median fluorescence intensity, fold over isotype control | item: antibody 501 (antibody, V domains shown) VH: QVQLVQSGAEVKKPGASVKVSCKASGYTFTSYYVHWVRQAPGQSLEWMGVISPSTGSTTYAQNFQGRVTMTRDTSTTTVYMELSSLRSEDTAVYYCARDDYYDSTRYFDLWGRGTLVTVSS VL: QSALTQPASVSGSPGQSISFSCTGTSSDIGAYNYVSWYQQHPGRAPKLMIYDVGNRPSGVSNRFSGSKSGNTASLTISGLQAEDEADYYCSSYTSSSTQVFGTGTKVTVL
Result: 46.1

Ask: What value of median fluorescence intensity, fold over isotype control has been reported for the following binder? antibody 482 (antibody, V domains shown) VH: EVQLVESGGGLVQPGGSLRLSCAASGFTFSSYWMTWVRQAPGKGLEWVANIKQDGSEKYYVDSVKGRFTISRDNAKNSLYLQMNSLRAEDTAVYYCARGVGSWYLGFDYWGQGTLVTVSS VL: NFMLTQPHSVSESPGKTVTISCTGSSGSIASNYVQWYQQRPGSAPTTVIYEDNQRPSGVPDRFSGSIDSSSNSASLTISGLKTEDEADYYCQSYDGSSYVFGTGTKVTVL
Result: 14.3

Ask: Can you look up the measured median fluorescence intensity, fold over isotype control of antibody 506 (antibody, V domains shown) VH: QITLKESGPTLVKPTQTLTLTCTFSGFSLSTSGVGVGWIRQPPGKALEWLALIYWDDDKRYSPSLKSRLTITKDTSKNQVVLTMTNMDPVDTATYYCAHHSLSSIFDYWGQGTLVTVSS VL: QSALTQPASVSGSPGQSITISCTGTSSDVGDYNYVSWYQQHPGKAPKLMIYEVSNRPSGVSNRFSGSKSGNTASLTISGLQAEDEADYYCSSYTSSSTVFGGGTKLTVLG for me?
Result: 69.5

Ask: Give the measured median fluorescence intensity, fold over isotype control of antibody 467 (antibody, V domains shown) VH: QVQLVQSGAEVKKPGASVKVSCKASGYTFISYGISWVRQAPGQGLEWMGWISAYNGNTNYAQKLQGRVTMTTDTSTSTAYMELRSLRSDDTAVYYCARGLWPGYYYGSGSYSAFHIWGQGTMVTVSS VL: QSALTQPPSASGSPGQSVSISCTGTSSDVGGYNYVSWYQQHPGKAPKLMIYEVSKRPSGVPDRFSGSKSGNTASLTVSGLQAEDEADYYCSSYAGSNKVFGGGTKLTVL .
Result: 7.54
